- SYSTEM_UNDER_TEST: hTREM2 (Homo sapiens, UniProt Q9NZC2)
- Sequence (Q9NZC2 19-230): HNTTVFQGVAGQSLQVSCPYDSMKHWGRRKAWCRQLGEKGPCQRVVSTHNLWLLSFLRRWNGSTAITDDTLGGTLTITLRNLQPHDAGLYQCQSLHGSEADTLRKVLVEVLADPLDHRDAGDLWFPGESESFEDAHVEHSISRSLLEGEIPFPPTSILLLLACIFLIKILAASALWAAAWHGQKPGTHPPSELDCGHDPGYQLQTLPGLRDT
- Sequence (O43914 22-113 partner): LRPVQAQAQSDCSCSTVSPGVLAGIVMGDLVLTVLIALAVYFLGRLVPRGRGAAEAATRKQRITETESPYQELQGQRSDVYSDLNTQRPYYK
- PROCEDURE_TEXT: TREM2 activity by cellular Syk phosphorylation (AlphaScreen/AlphaLISA) in TREM2/DAP12-HEK cells, used for Examples 1-305
- Type: cell-based
- Parameters: expressed in transfected cells
- PARTICULARS: HEK293 Cells
- Description: In vitro Measurement of Triggering Receptor Expressed on Myeloid Cells 2 activity using cellular phosphorylation of Spleen Tyrosine Kinase (“Syk”) Assays used for Examples 1-305 Pharmacological measurements of TREM2 signaling through DAP12 were made with TREM2 and DAP12 overexpressing HEK293 cells stable cell lines that had been single-cell cloned (“TREM2/DAP12-HEK”). […]
ASSAY_ENDPOINT: hTREM2 Emax

# COMPOUND, SYSTEM_UNDER_TEST, ASSAY_ENDPOINT, OBS_VALUE
data = [
    ("Cc1cc([C@H]2CN(c3nc(-c4ccc(C(F)(F)F)nc4)c4nc(C)c(C)nc4n3)CCO2)cnn1 [Example 299]", "hTREM2 (Homo sapiens, UniProt Q9NZC2)", "hTREM2 Emax", "+++ (Emax>150 and ≤250)"),
    ("Cc1cc([C@H]2C[C@@H](c3cc4nc(C)c(C)nc4c(-c4ccc(Cl)cc4F)n3)CCO2)ccn1 (single isomer, unassigned) [Example 218]", "hTREM2 (Homo sapiens, UniProt Q9NZC2)", "hTREM2 Emax", "+++ (Emax>150 and ≤250)"),
]

====

- SYSTEM_UNDER_TEST: UniProt:Q9NZC2
- PROCEDURE_TEXT: TREM2 activity by cellular Syk phosphorylation (AlphaScreen/AlphaLISA) in TREM2/DAP12-HEK cells, used for Examples 1-305
- Assay type: cell-based
- Design: expressed in transfected cells
- PARTICULARS: HEK293 Cells
Recorded EC50 values for a group of compounds are listed next.
ASSAY_ENDPOINT: EC50

# COMPOUND, OBS_VALUE
rows = [
    ("Cc1ccc2c(-c3ccc(F)cc3F)nc([C@@H]3CCO[C@H](c4cnn(C)c4)C3)nc2n1", "50 to 500 nM"),
    ("Cc1nc2cc([C@@H]3CCO[C@@H](c4cnn(C)c4)C3)nc(-c3ccc(Cl)cc3F)c2nc1C", "3000 to 100000 nM"),
    ("Cc1cc([C@H]2CN(c3nc4nc(C)cnc4c([C@H]4C[C@@H](C(F)(F)F)C4)n3)CCO2)ccn1", "50 to 500 nM"),
    ("CCn1cc([C@H]2CN(c3cc4nc(C)cnc4c(-c4ccc(Cl)cc4F)n3)CCO2)cn1", "50 to 500 nM"),
    ("Cc1nc2cc([C@H]3CCO[C@@H](c4cnn(C)c4)C3)nc(-c3ccc(F)cc3F)c2nc1C (single isomer, unassigned)", "≤ 50 nM"),
    ("Cc1nc2nc([C@@H]3CCO[C@H](c4cnn(C)c4)C3)nc(-c3ccc(F)cc3F)c2nc1C", "500 to 3000 nM"),
    ("Cc1cc([C@@H]2CN(c3nc4nc(C)c(C)nc4c([C@H]4C[C@H](C(F)(F)F)C4)n3)CCO2)cnn1", "50 to 500 nM"),
    ("COc1cc([C@H]2CN(c3cc4nc(C)ccc4c(-c4ccc(Cl)cc4F)n3)CCO2)ccn1", "50 to 500 nM"),
    ("Cc1cc([C@H]2C[C@@H](c3nc4nc(C)c(C)nc4c([C@H]4C[C@H](C(F)(F)F)C4)n3)CCO2)ccn1 (single isomer, unassigned)", "≤ 50 nM"),
    ("Cc1nc2nc(N3CCO[C@@H](c4cnn(C)c4)C3)nc(C3=CCC(F)(F)CC3)c2nc1C", "50 to 500 nM"),
    ("Cc1ccc(-c2nc(N3CCO[C@@H](c4cnn(C5CC5)c4)C3)nc3nc(C)ccc23)c(F)c1", "≤ 50 nM"),
    ("Cc1nc2nc([C@@H]3CCO[C@H](c4cnn(C5CC5)c4)C3)nc(-c3ccc(C(F)(F)F)nc3)c2nc1C", "≤ 50 nM"),
    ("Cc1cnc2c(-c3ccc(Cl)cc3F)nc([C@@H]3CCO[C@H](c4cnn(C)c4)C3)cc2n1", "500 to 3000 nM"),
    ("Cc1ccc(-c2nc([C@@H]3CCO[C@H](c4cnn(C)c4)C3)nc3nc(C)c(C)cc23)c(F)c1 (single isomer, unassigned)", "500 to 3000 nM"),
    ("Cc1cc([C@H]2C[C@@H](c3nc(-c4ccc(Cl)cc4F)c4nc(C)c(C)nc4n3)CCO2)ccn1 (single isomer, unassigned)", "≤ 50 nM"),
    ("Cc1cc([C@H]2CN(c3cc4nc(C)ccc4c(-c4ccc(Cl)cc4F)n3)CCO2)ccn1", "50 to 500 nM"),
    ("Cc1cc([C@@H]2C[C@@H](c3nc(-c4ccc(F)cc4F)c4cc(C)c(C)nc4n3)CCO2)ccn1 (single isomer, unassigned)", "≤ 50 nM"),
    ("Cc1cnc2nc(N3CCO[C@@H](c4cnn(C)c4)C3)cc(-c3ccc(Cl)cc3F)c2n1", "50 to 500 nM"),
    ("Cc1cc2c(-c3ccc(Cl)cc3F)nc(N3CCO[C@@H](c4cnn(C)c4)C3)cc2nc1C", "≤ 50 nM"),
    ("Cc1cnc2c(-c3ccc(Cl)cc3F)nc([C@@H]3CCO[C@H](c4cnc(C)nc4)C3)nc2n1 (single isomer, unassigned)", "50 to 500 nM"),
    ("Cc1cc([C@H]2CN(c3nc(-c4ccc(F)cc4F)c4ncc(C)nc4n3)CCO2)ccn1", "≤ 50 nM"),
    ("Cc1cc([C@H]2CN(c3nc(-c4ccc(F)cc4F)c4nc(C)c(C)nc4n3)CCO2)ccn1", "≤ 50 nM"),
    ("Cc1cc2c(-c3ccc(Cl)cc3F)nc(C3CCO[C@H](c4cnn(C)c4)C3)nc2nc1C (stereo in doubt)", "50 to 500 nM"),
    ("Cc1nc2nc([C@H]3CCO[C@@H](c4cnn(C)c4)C3)cc(-c3ccc(Cl)cc3F)c2nc1C (single isomer, unassigned)", "≤ 50 nM"),
    ("Cc1nc2nc(N3CCO[C@@H](c4cnn(C5CC5)c4)C3)nc(C34CC(C(F)(F)F)(C3)C4)c2nc1C", "≤ 50 nM"),
    ("Cc1ccc(-c2nc([C@H]3CCO[C@@H](c4cnn(C)c4)C3)nc3nc(C)c(C)cc23)c(F)c1 (single isomer, unassigned)", "≤ 50 nM"),
    ("Cc1cnc2c(-c3ccc(Cl)cc3F)nc(N3CCOC(C4CCOC4)C3)nc2n1 (stereo not shown)", "500 to 3000 nM"),
    ("Cc1cc([C@H]2CN(c3nc4nc(C)cnc4c([C@H]4C[C@@H](C(F)(F)F)C4)n3)CCO2)cnn1", "500 to 3000 nM"),
]

====

- SYSTEM_UNDER_TEST: hTREM2 (Homo sapiens)
- PROCEDURE_TEXT: TREM2 activity by cellular Syk phosphorylation (AlphaScreen/AlphaLISA) in TREM2/DAP12-HEK cells, used for Examples 1-305
- Format: cell-based
- Parameters: expressed in transfected cells
- PARTICULARS: HEK293 Cells
- Excerpt: In vitro Measurement of Triggering Receptor Expressed on Myeloid Cells 2 activity using cellular phosphorylation of Spleen Tyrosine Kinase (“Syk”) Assays used for Examples 1-305 Pharmacological measurements of TREM2 signaling through DAP12 were made with TREM2 and DAP12 overexpressing HEK293 cells stable cell lines that had been single-cell cloned (“TREM2/DAP12-HEK”). […]

# COMPOUND, EC50
records = [
    ("Cc1cc2c(OC[C@H]3C[C@@H](C(F)(F)F)C3)nc(N3CCO[C@@H](c4cnn(C)c4)C3)nc2nc1C [Example 109]", "3000 to 100000 nM"),
    ("Cc1nc2cc([C@H]3CCO[C@@H](c4cnn(C)c4)C3)nc(-c3ccc(Cl)cc3F)c2nc1C (single isomer, unassigned) [Example 192]", "≤ 50 nM"),
    ("Cc1nc2nc(N3CCO[C@@H](c4cnn(C)c4)C3)nc([C@H]3C[C@@H](C(F)(F)F)C3)c2nc1C [Example 43]", "50 to 500 nM"),
    ("Cc1cnc2c(n1)nc(N1CCO[C@@H](c3cnn(C4CC4)c3)C1)nc2[C@H]1C[C@@H](C(F)(F)F)C1 [Example 12]", "500 to 3000 nM"),
]

====

- SYSTEM_UNDER_TEST: hTREM2 (Homo sapiens, UniProt Q9NZC2)
- PROCEDURE_TEXT: TREM2 activity by cellular Syk phosphorylation (AlphaScreen/AlphaLISA) in TREM2/DAP12-HEK cells, used for Examples 1-305
- Type: cell-based
- Parameters: expressed in transfected cells
- PARTICULARS: HEK293 Cells
- Source text: In vitro Measurement of Triggering Receptor Expressed on Myeloid Cells 2 activity using cellular phosphorylation of Spleen Tyrosine Kinase (“Syk”) Assays used for Examples 1-305 Pharmacological measurements of TREM2 signaling through DAP12 were made with TREM2 and DAP12 overexpressing HEK293 cells stable cell lines that had been single-cell cloned (“TREM2/DAP12-HEK”). […]
ASSAY_ENDPOINT: hTREM2 Emax

# COMPOUND, OBS_VALUE
rows = [
    ("Cc1ccc2c(-c3ccc(Cl)cc3F)nc(N3CCO[C@@H](c4cnn(C5CC5)c4)C3)nc2n1", "+++ (Emax>150 and ≤250)"),
    ("Cc1nc2nc(N3CCO[C@@H](c4cnn(C)c4)C3)nc(C3CCC4(CC3)CC4)c2nc1C", "+++ (Emax>150 and ≤250)"),
    ("Cc1ccc(-c2nc(N3CCO[C@@H](c4cnn(C)c4)C3)nc3nc(C)c(C)nc23)c(F)c1", "+++ (Emax>150 and ≤250)"),
    ("Cc1cc(F)ccc1-c1nc(N2CCO[C@@H](c3cnn(C)c3)C2)nc2nc(C)c(C)nc12", "+++ (Emax>150 and ≤250)"),
    ("Cc1cnc2c(-c3ccc(Cl)cc3F)nc(N3CCO[C@@H](c4cnn(C5CC5)c4)C3)nc2n1", "+++ (Emax>150 and ≤250)"),
    ("Cc1cc2cc(N3CCO[C@@H](c4cnn(C)c4)C3)nc(-c3ccc(Cl)cc3F)c2nc1C", "+++ (Emax>150 and ≤250)"),
    ("Cc1cnc2c(-c3ccc(Cl)cc3F)nc([C@H]3CCO[C@@H](c4cnc(C)nc4)C3)nc2n1 (single isomer, unassigned)", "+++ (Emax>150 and ≤250)"),
    ("Cc1nc2cc([C@H]3CCO[C@H](c4cnn(C)c4)C3)nc(-c3ccc(Cl)cc3F)c2nc1C (single isomer, unassigned)", "++++ (Emax>250)"),
    ("Cc1cnc2c(-c3ccc(Cl)cc3F)nc([C@@H]3CCO[C@H](c4cnc(C)nc4)C3)nc2n1 (single isomer, unassigned)", "+++ (Emax>150 and ≤250)"),
    ("Cc1cc([C@H]2C[C@@H](c3nc(-c4ccc(Cl)cc4F)c4ncc(C)nc4n3)CCO2)ccn1 (single isomer, unassigned)", "+++ (Emax>150 and ≤250)"),
    ("Cc1nc2cc([C@H]3C[C@@H](C)O[C@@H](c4cnn(C)c4)C3)nc(-c3ccc(Cl)cc3F)c2nc1C (single isomer, unassigned)", "++++ (Emax>250)"),
    ("Cc1ccc(-c2nc(N3CCO[C@@H](c4ccnc(C)c4)C3)nc3nc(C)ccc23)c(F)c1", "++++ (Emax>250)"),
    ("CN1Cc2c(cc(N3CCO[C@@H](c4cnn(C5CC5)c4)C3)nc2-c2ccc(Cl)cc2F)C1=O", "++++ (Emax>250)"),
    ("Cc1cc([C@@H]2CN(c3nc(-c4ccc(Cl)cc4F)c4ccc(C)nc4n3)CCO2)cnn1 (single isomer, unassigned) [Example 87]", "++++ (Emax>250)"),
]

src = patent US11884675B2
